Biological target: 17-beta-hydroxysteroid dehydrogenase type 1 (Homo sapiens, UniProt P14061)
Sequence (P14061 whole entry): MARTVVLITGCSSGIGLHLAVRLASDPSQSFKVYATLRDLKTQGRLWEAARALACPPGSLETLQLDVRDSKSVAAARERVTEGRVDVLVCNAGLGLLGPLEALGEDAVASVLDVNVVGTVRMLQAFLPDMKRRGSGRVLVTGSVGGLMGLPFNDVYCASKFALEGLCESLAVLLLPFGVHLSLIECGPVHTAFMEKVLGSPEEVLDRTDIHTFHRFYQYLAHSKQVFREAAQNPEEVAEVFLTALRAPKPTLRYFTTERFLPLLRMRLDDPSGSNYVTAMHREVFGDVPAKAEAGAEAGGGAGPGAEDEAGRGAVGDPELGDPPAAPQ
Assay: Inhibition of 17beta-HSD1 in human T47D cells expressing estrogen receptor assessed as conversion of [14C]-E1 to [14C]-E2 after 24 hrs
RECORDED_METRIC: pIC50
Give bare numbers, as −log10 of the molar value.

Value lookup for pIC50; key = C[C@]12CC[C@@H]3c4ccc(O)cc4CC[C@H]3[C@@H]1C[C@@H]1[C@@H](Cc3cccc(C(N)=O)c3)C(=O)O[C@@H]12 6.00
